Quick list: inhibition per entry.
# measured.target: Orexin/Hypocretin receptor type 1 (Homo sapiens) (UniProt O43613)
# Sequence (O43613 whole entry): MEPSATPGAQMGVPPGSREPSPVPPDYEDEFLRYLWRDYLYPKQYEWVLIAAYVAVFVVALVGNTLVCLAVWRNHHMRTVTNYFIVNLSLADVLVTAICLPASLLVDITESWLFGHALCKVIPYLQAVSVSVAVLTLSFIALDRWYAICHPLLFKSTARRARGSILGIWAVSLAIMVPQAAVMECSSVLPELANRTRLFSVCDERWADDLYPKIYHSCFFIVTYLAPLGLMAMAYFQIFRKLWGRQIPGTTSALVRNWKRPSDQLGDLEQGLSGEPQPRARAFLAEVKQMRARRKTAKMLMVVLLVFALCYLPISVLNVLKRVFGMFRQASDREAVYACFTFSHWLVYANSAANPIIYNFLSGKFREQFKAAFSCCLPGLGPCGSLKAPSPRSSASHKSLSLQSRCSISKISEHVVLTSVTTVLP
# method.notes: Displacement of [125I]-orexin A from human OX1 receptor expressed in […] at 10 uM after 90 mins by scintillation counting

Example compounds with recorded inhibition:
compound="COC(=O)CN(C(C)=O)C(c1ccccc1)c1cc(Br)ccc1NC(=O)c1ccccc1Cl (stereo unspecified)" reported_measurement="> 70%"
compound=Cc1ccc(C(O)(C(=O)NNc2cc(Cl)ccc2Cl)c2ccc(C)cc2)cc1 reported_measurement="> 50%"
compound="COc1ccc(N(CC(=O)NC(C)c2ccccc2)S(=O)(=O)c2ccc(OC)c(OC)c2)cc1 (stereo unspecified)" reported_measurement="> 50%"
compound="CCOC(=O)c1c(NC(=O)C(C)Sc2nnc(CNC(=O)c3cc(OC)cc(OC)c3)n2-c2ccccc2OC)sc2c1CCC2 (stereo unspecified)" reported_measurement="> 50%"
compound="COc1ccccc1OCCNC[C@@H](O)COc1cccc2[nH]c3ccccc3c12 [(R)-Carvedilol]" reported_measurement="> 70%"

Q) Data request, read-out inhibition, for `COc1ccc(Nc2nc(NCc3ccco3)nc(N/N=C\c3cc(Br)c(O)c(Br)c3)n2)cc1`
A) 20 to 40%

Q) Data request, read-out inhibition, for `Cc1cccc2c1[nH]c1nc(N/N=C\c3c4ccccc4cc4ccccc34)nnc12`
A) > 50%

Q) Data request, read-out inhibition, for `COc1ccc(CCNC(=O)Cn2c(-c3nonc3N)nc3ccccc32)cc1OC`
A) > 50%

====

# measured.target: Orexin/Hypocretin receptor type 1 (Homo sapiens)
# method.notes: Agonist activity at human OX1 receptor expressed in […] assessed as induction of Ca2+ elevation at 10 uM after 30 mins by FLIPR calcium 4 assay relative to orexin-A
# Type: functional, cell-based
quantity.kind: Activity (%)

I: COc1ccccc1OCCNC[C@@H](O)COc1cccc2[nH]c3ccccc3c12 [(R)-Carvedilol]
II: COc1ccc(Nc2nc(NCc3ccco3)nc(N/N=C\c3cc(Br)c(O)c(Br)c3)n2)cc1
Q) Sorting by Activity in descending order, would I or II appear first? State the label of the item chosen.
A) I
(I: 6.3%, II: 2.7%)

====

# measured.target: Orexin receptor type 2 (Homo sapiens) (UniProt O43614)
# Sequence (O43614 whole entry): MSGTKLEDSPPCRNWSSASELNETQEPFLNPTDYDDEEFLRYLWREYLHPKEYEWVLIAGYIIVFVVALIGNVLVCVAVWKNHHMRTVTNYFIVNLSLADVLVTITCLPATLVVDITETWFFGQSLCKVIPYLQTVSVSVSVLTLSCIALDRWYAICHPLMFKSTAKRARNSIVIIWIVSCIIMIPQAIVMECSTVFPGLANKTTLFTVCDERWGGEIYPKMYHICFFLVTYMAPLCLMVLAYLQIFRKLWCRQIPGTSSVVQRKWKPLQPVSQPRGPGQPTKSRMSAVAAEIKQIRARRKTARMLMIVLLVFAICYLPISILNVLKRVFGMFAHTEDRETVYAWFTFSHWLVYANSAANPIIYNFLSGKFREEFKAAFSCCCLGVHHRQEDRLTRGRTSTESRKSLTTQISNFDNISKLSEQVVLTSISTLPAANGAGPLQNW
# assay.setup: CHO, at 5 µM
# Description: Antagonist activity at human OX2 receptor expressed in CHO cells assessed as inhibition of orexin A-induced Ca2+ elevation at 5 uM after 30 mins by FLIPR calcium 4 assay
quantity.kind: inhibition

Q) Data request, read-out inhibition, for `COc1ccc(CCNC(=O)Cn2c(-c3nonc3N)nc3ccccc32)cc1OC`
A) > 20%

Q) Data request, read-out inhibition, for `Cc1ccc(C(O)(C(=O)NNc2cc(Cl)ccc2Cl)c2ccc(C)cc2)cc1`
A) > 20%

Q) Data request, read-out inhibition, for COc1ccc(N(CC(=O)NC(C)c2ccccc2)S(=O)(=O)c2ccc(OC)c(OC)c2)cc1 (stereo unspecified)
A) > 20%

Q) Data request, read-out inhibition, for CCOC(=O)c1c(NC(=O)C(C)Sc2nnc(CNC(=O)c3cc(OC)cc(OC)c3)n2-c2ccccc2OC)sc2c1CCC2 (stereo unspecified)
A) > 20%

Q) Data request, read-out inhibition, for C=CCN1C(=O)C2(Nc3ccccc3C(=O)N2c2ccccc2OC)c2ccccc21 (stereo unspecified)
A) > 20%

Q) Data request, read-out inhibition, for `O=C(CSc1nnc(-c2cccs2)n1Cc1ccco1)Nc1ccc2c(c1)OCCO2`
A) > 20%

====

# measured.target: Orexin/Hypocretin receptor type 1 (Homo sapiens)
# method.notes: Displacement of [125I]-orexin A from human OX1 receptor expressed in […] at 10 uM after 90 mins by scintillation counting
quantity.kind: inhibition

Example molecules with recorded inhibition:
molecule="C=CCN1C(=O)C2(Nc3ccccc3C(=O)N2c2ccccc2OC)c2ccccc21 (stereo not drawn)" reported_measurement="> 50%"
molecule=CC(/C=C/c1ccccc1)=N/Nc1nc(Nc2ccccc2)nc(-n2nc(C)cc2C)n1 reported_measurement="20 to 40%"

Q) Data request, read-out inhibition, for `O=C(CSc1nnc(-c2cccs2)n1Cc1ccco1)Nc1ccc2c(c1)OCCO2`
A) > 50%

Cited source: ChEMBL document CHEMBL4428072
